Every entry's value here was drawn from ChEMBL document CHEMBL4196231.

Provide the reported IC50 of each item.
Square brackets hold non-standard residues; d marks the D form. Peptide text beside a SMILES is read from it. * marks the point of attachment. X4 = Cn1cc(-c2ccccc2)nc1[C@@H]1CCCN1*; Ala(cPent) = N[C@@H](CC1CCCC1)C(=O)O; Dap = NC[C@H](N)C(=O)O
Answer format: numeric, µM implied, no suffix.

Report the value of IC50 obtained on Protein ENL (Homo sapiens) for CC[C@H](C)[C@H](NC(=O)[C@@H]1CCCN1C(=O)[C@H](CC(C)C)NC(C)=O)C(=O)N[C@@H](CO)C(=O)N[C@@H](CC(C)C)C(=O)N1CCC[C@H]1C(=O)N[C@@H](CC(C)C)C(=O)N(C)C (Ac-LPISLPL-NMe2) .
Sequence (Q03111 whole entry): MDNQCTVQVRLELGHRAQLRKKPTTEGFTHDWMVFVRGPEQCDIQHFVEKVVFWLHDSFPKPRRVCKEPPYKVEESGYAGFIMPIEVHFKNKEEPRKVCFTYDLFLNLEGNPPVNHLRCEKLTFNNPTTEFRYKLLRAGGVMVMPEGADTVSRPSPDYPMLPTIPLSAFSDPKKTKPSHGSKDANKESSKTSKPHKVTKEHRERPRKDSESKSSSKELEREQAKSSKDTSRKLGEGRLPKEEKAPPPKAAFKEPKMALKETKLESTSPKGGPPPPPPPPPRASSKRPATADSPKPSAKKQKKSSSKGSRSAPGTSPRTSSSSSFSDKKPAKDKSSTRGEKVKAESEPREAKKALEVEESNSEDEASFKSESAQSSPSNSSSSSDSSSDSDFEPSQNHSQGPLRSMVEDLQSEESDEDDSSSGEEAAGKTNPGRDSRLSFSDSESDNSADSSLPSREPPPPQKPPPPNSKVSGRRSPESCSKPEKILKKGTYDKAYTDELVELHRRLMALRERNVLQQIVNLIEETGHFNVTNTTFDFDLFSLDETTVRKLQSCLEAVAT
18.6

Report the value of IC50 obtained on Protein ENL (Homo sapiens) for CC(=O)N[C@@H](CC(C)C)C(=O)N1CCC[C@H]1C(=O)N[C@H](C(=O)N[C@@H](CN)C(=O)N[C@@H](CC1CCCC1)C(=O)N1CCC[C@H]1c1nc(-c2ccccc2)cn1C)C(C)C (Ac-LPV[Dap][Ala(cPent)]-X4) .
1.77
